Target: T1, human tissue factor (TF), membrane-bound on cells (human, UniProt P13726 33-295)
T1 construct: whole, on cells; also called cellular TF
Test: FACS, TF transfected CHO cells (S1015-TF), 7.5 µg/mL
Entries and their Max MFI
// return just the number, without any unit appended

Example entries begin here.
>  <binder>
anti-TF HuMab 111 (antibody, V domains shown, Human monoclonal antibody from HuMab mice) VH: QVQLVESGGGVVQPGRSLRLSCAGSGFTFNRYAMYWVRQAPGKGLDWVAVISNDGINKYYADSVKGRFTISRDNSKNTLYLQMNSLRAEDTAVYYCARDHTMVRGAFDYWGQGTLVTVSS VL: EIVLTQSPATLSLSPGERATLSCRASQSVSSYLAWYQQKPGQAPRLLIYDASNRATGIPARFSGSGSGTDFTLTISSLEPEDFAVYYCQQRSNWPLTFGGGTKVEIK

>  <value-reported>
5350

$$$$
>  <binder>
anti-TF HuMab 025 (antibody, V domains shown, Human monoclonal antibody from HuMab mice) VH: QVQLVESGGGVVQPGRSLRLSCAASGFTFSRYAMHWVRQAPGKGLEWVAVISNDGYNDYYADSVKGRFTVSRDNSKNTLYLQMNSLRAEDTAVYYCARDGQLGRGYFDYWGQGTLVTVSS VL: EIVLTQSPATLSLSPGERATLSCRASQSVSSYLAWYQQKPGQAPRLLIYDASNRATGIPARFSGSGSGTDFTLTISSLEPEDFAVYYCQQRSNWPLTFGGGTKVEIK

>  <value-reported>
5810

$$$$

// switching to the query binder
[ask] Need Max MFI of anti-TF HuMab 098 (antibody, V domains shown, Human monoclonal antibody from HuMab mice; also called HuMab-TF-098; HuMab-TF-98) VH: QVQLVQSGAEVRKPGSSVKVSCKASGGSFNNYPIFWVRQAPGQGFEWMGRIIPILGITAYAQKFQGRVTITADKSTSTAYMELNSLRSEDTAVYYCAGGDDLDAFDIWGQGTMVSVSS VL: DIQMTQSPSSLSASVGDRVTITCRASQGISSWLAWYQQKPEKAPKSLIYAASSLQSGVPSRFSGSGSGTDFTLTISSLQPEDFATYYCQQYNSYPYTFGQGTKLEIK , thanks.
[reply] 5230
